Reported 5-HT6 [%] values are given for each entry in this list.
target: 5-HT6 receptor (Homo sapiens, UniProt P50406); construct: purchased PerkinElmer; assay: Radioligand binding assay, serotoninergic 5-HT6 receptors; conditions: binding assay result in %, Table 5a;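 further: test compound at 1 µM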
Sequence (P50406 whole entry): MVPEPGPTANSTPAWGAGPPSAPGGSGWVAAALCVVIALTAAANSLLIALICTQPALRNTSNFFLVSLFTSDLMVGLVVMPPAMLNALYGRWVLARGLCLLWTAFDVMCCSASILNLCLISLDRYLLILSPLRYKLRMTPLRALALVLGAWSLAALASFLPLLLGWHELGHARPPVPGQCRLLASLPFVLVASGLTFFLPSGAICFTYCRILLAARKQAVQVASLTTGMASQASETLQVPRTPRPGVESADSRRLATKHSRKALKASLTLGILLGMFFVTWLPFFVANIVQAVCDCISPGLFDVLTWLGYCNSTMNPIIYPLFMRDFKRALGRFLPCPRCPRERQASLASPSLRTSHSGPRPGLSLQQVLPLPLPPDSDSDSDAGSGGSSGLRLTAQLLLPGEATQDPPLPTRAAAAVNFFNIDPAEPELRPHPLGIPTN
I'd appreciate it if you included the unit after the number.

Take a look at these entries with their results.
Molecule	Experimental System	5-HT6 [%]
O=S(=O)(NC1CN(CCOc2cccc3c2OCCO3)C1)c1cccc(F)c1 [Compound 89]	5-HT6 receptor (Homo sapiens, UniProt P50406)	19%
O=S(=O)(NC1CCN(CCOc2cccc3ccccc23)CC1)c1cccc(O)c1 [Compound 119]	5-HT6 receptor (Homo sapiens, UniProt P50406)	57%

Qu. Find the recorded 5-HT6 [%] belonging to O=S(=O)(NC1CN(CCOc2cccc3c2OCCO3)C1)c1ccc2ccccc2c1 [Compound 95] and report it.
Ans. 9%

Qu. Find the recorded 5-HT6 [%] belonging to O=S(=O)(NC1CCN(CCOc2cccc3c2OCCO3)C1)c1ccc2ccccc2c1 (stereo not drawn) [Compound 99] and report it.
Ans. 64%

Qu. Find the recorded 5-HT6 [%] belonging to O=S(=O)(NC1CCN(CCOc2cccc3c2OCCO3)C1)c1cccc2ccccc12 (stereo not drawn) [Compound 98] and report it.
Ans. 32%

Qu. Find the recorded 5-HT6 [%] belonging to O=S(=O)(NC1CCN(CCOc2cccc3c2OCCO3)C1)c1ccccc1 (stereo not drawn) [Compound 96] and report it.
Ans. 5%

Qu. Find the recorded 5-HT6 [%] belonging to Cc1cccc(S(=O)(=O)NC2CCN(CCOc3cccc4[nH]ccc34)CC2)c1 [Compound 56] and report it.
Ans. 36%

---

target: 5-HT7 serotoninergic receptors (Homo sapiens, UniProt P34969); assay: Cellular functional assay, 5-HT7 serotoninergic receptors; format: cell-based; conditions: agonist mode; percent of control specific agonist response; further: test concentration or dose not given here
Sequence (P34969 whole entry): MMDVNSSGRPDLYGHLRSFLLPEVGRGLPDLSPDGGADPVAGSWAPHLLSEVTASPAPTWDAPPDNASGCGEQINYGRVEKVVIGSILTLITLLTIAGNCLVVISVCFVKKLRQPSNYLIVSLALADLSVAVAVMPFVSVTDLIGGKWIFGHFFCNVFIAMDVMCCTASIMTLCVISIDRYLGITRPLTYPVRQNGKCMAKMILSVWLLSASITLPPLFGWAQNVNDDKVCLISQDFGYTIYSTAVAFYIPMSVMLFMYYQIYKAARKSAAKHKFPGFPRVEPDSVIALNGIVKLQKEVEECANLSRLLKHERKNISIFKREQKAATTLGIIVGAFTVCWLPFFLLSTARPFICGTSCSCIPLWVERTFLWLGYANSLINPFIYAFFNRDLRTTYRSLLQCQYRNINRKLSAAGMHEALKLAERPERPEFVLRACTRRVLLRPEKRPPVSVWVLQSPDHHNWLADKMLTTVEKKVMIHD
Reported 5-HT7 ag [%] values are given for each entry in this list.

Compound	5-HT7 ag [%]
Cc1ccc2sc(S(=O)(=O)N[C@@H]3CCN(CCCc4noc5cc(F)ccc45)C3)cc2c1	0%
O=S(=O)(N[C@H]1CCN(CCCc2noc3cc(F)ccc23)C1)c1cc2ccccc2s1	0%
Cc1c(S(=O)(=O)N[C@H]2CCN(CCCc3noc4cc(F)ccc34)C2)sc2ccc(Cl)cc12	−1%
O=S(=O)(NC1CN(CCOc2cccc3c2OCCO3)C1)c1cccc2ccccc12	19%

Qu. Lab note: need 5-HT7 ag [%] for O=S(=O)(NC1CCN(CCCc2c[nH]c3ccc(F)cc23)C1)c1ccc2ccccc2c1 (centres unmarked) on 5-HT7 serotoninergic receptors (Homo sapiens, UniProt P34969), anyone have it?
Ans. 3%

Qu. Lab note: need 5-HT7 ag [%] for Cc1c(S(=O)(=O)N[C@@H]2CCN(CCCc3noc4cc(F)ccc34)C2)sc2ccc(F)cc12 on 5-HT7 serotoninergic receptors (Homo sapiens, UniProt P34969), anyone have it?
Ans. −3%

Qu. Lab note: need 5-HT7 ag [%] for O=S(=O)(NC1CN(CCOc2cccc3[nH]ccc23)C1)c1ccc2ccccc2c1 on 5-HT7 serotoninergic receptors (Homo sapiens, UniProt P34969), anyone have it?
Ans. 21%

Qu. Lab note: need 5-HT7 ag [%] for Cc1c(S(=O)(=O)NC2CCN(CCCc3noc4cc(F)ccc34)C2)sc2ccc(F)cc12 (centres unmarked) on 5-HT7 serotoninergic receptors (Homo sapiens, UniProt P34969), anyone have it?
Ans. −3%

The measurements presented in this section are drawn from patent US20140135310A1.
